Values were extracted from patent US7754720B2.

Assay: physchem
Type: physicochemical
Conditions: pH 6.4, fassif
Measurement label: solubility
Mention the unit after the number when you answer.

Query: Any idea what solubility was measured for Fc1ccccc1-c1nc2ccn(Cc3ccc(-c4ccc(C(F)(F)F)cc4C(F)(F)F)nn3)cc-2n1 ?
Response: 19.1 µg/mL

----------
Assay: in vitro
Conditions: human
Measurement label: CC50

Query: So what's the measured CC50 for this one? Fc1ccccc1-c1nc2ccn(Cc3ccc(-c4ccc(C(F)(F)F)cc4C(F)(F)F)nn3)cc-2n1 [Compound (1)]
Response: > 50 µM

----------
Test: Cytotoxicity, CellTiter-Glo Luminescence Cell Viability assay, Huh-7 lucneo
Conditions: human, Huh-7 lucneo cells (HCV replicon-containing)
Measurement label: CC50

Query: Request the reported CC50 associated with Fc1ccccc1-c1nc2ccn(Cc3ccc(-c4ccc(C(F)(F)F)cc4C(F)(F)F)nn3)cc-2n1
Response: > 50 µM

----------
System: HCV genotype 1b (Con-1/lucneo) replicon
Assay: microbe, parasite or virus in culture
Type: cell-based
Conditions: Hepatitis C virus, 72 h, read-out: EC50 HCV 1b-lucneo 40 mg/mL HSA; 3 days, presence of 40 mg/mL human serum albumin
Procedure: HCV genotype 1b (Con-1/lucneo) and 1a (H77/neo) replicon cells were incubated with serial dilutions of compound (1) 2′C-methyl adenosine (2′CMeA) or IFNα for 3 days in the absence or presence of 40 mg/mL human serum albumin (HSA).
Measurement label: EC50

Query: Could you tell me which EC50 is on file for Fc1ccccc1-c1nc2ccn(Cc3ccc(-c4ccc(C(F)(F)F)cc4C(F)(F)F)nn3)cc-2n1 [Compound (1)] ?
Response: 11 nM

----------
Assay: Cytotoxicity, CellTiter-Glo Luminescence Cell Viability assay, SL3
Conditions: human, SL3 cells (HCV replicon-containing)
Measurement label: CC50

Query: Which CC50 reading was recorded for the molecule Fc1ccccc1-c1nc2ccn(Cc3ccc(-c4ccc(C(F)(F)F)cc4C(F)(F)F)nn3)cc-2n1 [Compound (1)] ?
Response: > 50 µM

----------
Tested on: HCV genotype 1b (Con-1/lucneo) replicon
Assay: microbe, parasite or virus in culture
Type: cell-based
Details: Hepatitis C virus, read-out: EC50 in HCV-1b and HCV-1a replicons
Measurement label: EC50

Query: Value lookup for EC50; key = Fc1ccccc1-c1nc2ccn(Cc3ccc(-c4ccc(C(F)(F)F)cc4C(F)(F)F)nn3)cc-2n1
Response: 0.62 to 3.6 nM

----------
Test system: HCV genotype 1a (H77/neo) replicon
Experiment: HCV genotype 1a (H77/neo) replicon, quantitative real-time PCR assay
Assay type: cell-based
Conditions: Hepatitis C virus, 72 h, 3 days
Measurement label: pEC50
Please keep in mind that pEC50 is minus log10 of the molar concentration; only the number is needed.

Query: Hi! What's the reported pEC50 for Fc1ccccc1-c1nc2ccn(Cc3ccc(-c4ccc(C(F)(F)F)cc4C(F)(F)F)nn3)cc-2n1 [Compound (1)] on HCV genotype 1a (H77/neo) replicon?
Response: 8.44

----------
Experiment: Cytotoxicity, CellTiter-Glo Luminescence Cell Viability assay, MH4
Settings: mouse, MH4 cells (HCV replicon-containing)
Measurement label: CC50

Query: I would be grateful if you could share the reported CC50 for Fc1ccccc1-c1nc2ccn(Cc3ccc(-c4ccc(C(F)(F)F)cc4C(F)(F)F)nn3)cc-2n1 .
Response: > 50 µM
